tested on: Acinetobacter baumanii T6474; test: Bacterial growth minimal inhibitory concentration (microdilution, cation-adjusted Mueller-Hinton Broth); format: cell-based; details: Acinetobacter baumannii, multiply-resistant strain (in particular quinolone-resistant)
reported_property: MIC (µg/mL)

The cases that follow already have their MIC on record.
compound="O=C1CSc2ccc(-n3nc(CCCN[C@@H]4Cn5c(=O)ccc6ccc(F)c4c65)oc3=O)cc2N1 [Example 15]" target_system="Acinetobacter baumanii T6474" reported_property=MIC readout_value=0.125
compound="CCSc1ccc(-n2nc(CCCN[C@@H]3Cn4c(=O)cnc5ccc(F)c3c54)oc2=O)cc1 [Example 33]" target_system="Acinetobacter baumanii T6474" reported_property=MIC readout_value=0.25

[A] CCSc1ccc(-n2nc(CCCN[C@H]3Cn4c(=O)cnc5ccc(F)c3c54)oc2=O)cc1 [Example 5]
[B] N#Cc1ccc2ccc(=O)n3c2c1[C@H](NCCCc1nn(-c2ccc4c(n2)NC(=O)CO4)c(=O)o1)C3 [Example 41]
[C] O=C1COc2ccc(-n3nc(CCCN[C@@H]4Cn5c(=O)ccc6ccc(F)c4c65)oc3=O)nc2N1 [Example 8]
Qu. Rank the 3 compounds: largest MIC first, smallest last. Would you mind listing the labels in the order requested?
Ans. A, C, B
(A: 4 µg/mL, C: 0.5 µg/mL, B: 0.125 µg/mL)

* * *

test system: Staphylococcus aureus ATCC29213; test: Bacterial growth minimal inhibitory concentration (microdilution, cation-adjusted Mueller-Hinton Broth); format: cell-based; settings: methicillin-sensitive and quinolone-sensitive strain, read-out: MIC for S. aureus ATCC29213
reported_property: MIC (µg/mL)

molecule="CC(C)c1ccc(-n2nc(CCCN[C@@H]3Cn4c(=O)ccc5ccc(F)c3c54)oc2=O)cc1 [Example 3]" scale_unit=µg/mL readout_value=0.063
molecule="CCCc1ccc(-n2nc(CCCN[C@H]3Cn4c(=O)ccc5ccc(F)c3c54)oc2=O)cc1 [Example 26]" scale_unit=µg/mL readout_value=0.125

[I] O=C1COc2ccc(-n3nc(CCCN[C@H]4Cn5c(=O)ccc6ccc(F)c4c65)oc3=O)cc2N1 [Example 12]
[II] CCCc1ccc(-n2nc(CCCN[C@@H]3Cn4c(=O)ccc5ccc(F)c3c54)oc2=O)cc1 [Example 1]
[III] CCCc1ccc(-n2nc(CCCN[C@@H]3Cn4c(=O)cnc5ccc(F)c3c54)oc2=O)cc1 [Example 27]
[IV] CCCc1ccc(-n2nc(CCCN[C@H]3Cn4c(=O)cnc5ccc(F)c3c54)oc2=O)cc1 [Example 2]
Qu. Please put the entries in order of rising MIC. Would you mind listing the labels in the order requested?
Ans. I, IV, II, III
(I: 0.031 µg/mL, IV: 0.125 µg/mL, II: 0.25 µg/mL, III: 0.5 µg/mL)

* * *

tested on: Acinetobacter baumanii T6474; test: Bacterial growth minimal inhibitory concentration (microdilution, cation-adjusted Mueller-Hinton Broth); format: cell-based; details: Acinetobacter baumannii, multiply-resistant strain (in particular quinolone-resistant)
reported_property: MIC (µg/mL)

The cases that follow already have their MIC on record.
molecule="CCSc1ccc(-n2nc(CCCN[C@H]3Cn4c(=O)ccc5ccc(F)c3c54)oc2=O)cc1 [Example 32]" scale_unit=µg/mL readout_value=0.5
molecule="O=C1COc2ccc(-n3nc(CCCN[C@@H]4Cn5c(=O)cnc6cccc4c65)oc3=O)nc2N1 [Example 35]" scale_unit=µg/mL readout_value=2
molecule="O=C1COc2ccc(-n3nc(CCCN[C@H]4Cn5c(=O)ccc6ccc(F)c4c65)oc3=O)cc2N1 [Example 12]" scale_unit=µg/mL readout_value=0.25
molecule="O=c1oc(CCCN[C@H]2Cn3c(=O)cnc4ccc(F)c2c43)nn1-c1ccc2c(c1)OCCO2 [Example 25]" scale_unit=µg/mL readout_value=8
molecule="O=C1COc2ccc(-n3nc(CCCN[C@@H]4Cn5c(=O)cnc6ccc(F)c4c65)oc3=O)nc2N1 [Example 7]" scale_unit=µg/mL readout_value=2
molecule="O=C1COc2ccc(-n3nc(CCCN[C@H]4Cn5c(=O)cnc6ccc(F)c4c65)oc3=O)cc2N1 [Example 13]" scale_unit=µg/mL readout_value=0.25

[P] CCCc1ccc(-n2nc(CCCN[C@H]3Cn4c(=O)ccc5ccc(F)c3c54)oc2=O)cc1 [Example 26]
[Q] O=C1COc2ccc(-n3nc(CCCN[C@@H]4Cn5c(=O)ccc6ccc(F)c4c65)oc3=O)cc2N1 [Example 11]
Qu. Of the two listed items, P and Q , which carries the larger MIC figure? Kindly state the label of the option you pick.
Ans. P
(P: 2 µg/mL, Q: 0.25 µg/mL)
